B1: Homeobox protein cut-like 2, residues 895 to 963; numbered along this chain, O14529 (parent)
chain: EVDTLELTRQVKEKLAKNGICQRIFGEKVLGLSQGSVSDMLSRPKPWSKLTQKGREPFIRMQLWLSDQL

- Variants of: B1
- Experiment Summary: abundance fitness (aPCA) (normalised: wild type 0, dead -1); higher = more abundant; growth selection in yeast, the domain comes from the species named
- Experimental Conditions: Homo sapiens
Decide by abundance fitness: equal to or exceeding -0.2 means t, less means f.

# example entries with known answers
S66T | t
T51V | t
M40C | t
K28Y | f
G19T | f

Prompt line: Is abundance fitness at least -0.2? Consider L32I
Response line: t

Prompt line: T8N ?
Response line: t

Prompt line: Repeat for the following variant: G19R
Response line: t

Prompt line: Same read-out for D3S ?
Response line: t

Prompt line: How about this variant: L30F
Response line: t

Prompt line: What do you get for D3G ?
Response line: f

Where do the numbers come from? From the Human Domainome abundance scans (Beltran et al. 2025).
